molecular target: RNA polymerase core enzyme;sigma32 R266A (E. coli;E. coli, UniProt P0A7Z4;P0A8V2;P0A8T7;P0A800;P0AGB3 1-329;1-1342;1-1407;1-91;1-284, |R266A); assay: fluorescence polarization; apparent Kd; FP: 10 mM Tris-HCl pH 7.7, 100 mM NaCl, 1 mM DTT, 1% glycerol, 0.025% Tween-20, 5 nM DNA, 10-320 nM holoenzyme, room temperature, 5 min; stopped-flow: 10 mM Tris-HCl pH 7.7, 20 mM NaCl, 10 mM MgCl2, 1 mM DTT; details: protein: recombinant;recombinant; tags: ;His tag (pET28a, Ni-NTA); chain copies: 2;1;1;1;1; blunt
readout.type: Kd (nM)

>>> reported("short -35 element DNA (dsDNA) DNA 1: CCTTGAAGACGTGG DNA 2: CCACGTCTTCAAGG")
54.9
